The following compounds are shown together with reported normalized growth values.
Method summary: chemical genetic growth profiling, strain panel (AID 1159580);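 also: tested at 20 µM; growth read once vehicle control cultures reached saturation at 30 °C; 1 = growth at the plate median or of vehicle wells; lower values mean less growth of the strain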
Experimental context: S. cerevisiae deletion strains, growth OD, locus YJL095W, strain BCK1, hits give low values
Out of some 5,500 compounds screened, about 2,000 (36%) were called active. About 18% were inconclusive and are not listed. The list shows a part of the results.

[[record]]
molecular_string = "Cc1ccc(NS(=O)(=O)c2ccc(-c3csc(C)n3)s2)c(C)c1"
recorded_measurement = "0.859 (inactive)"

[[record]]
molecular_string = "CCc1oc2ccccc2c1C(=O)c1cc(Br)c(O)c(Br)c1"
recorded_measurement = "0.101 (active)"


Asked: Record request: normalized growth value, item `CCCCC(=O)Oc1ccccc1C(=O)O`
Given back: 0.989 (inactive)
